test: Compound 3 blood PK in SW48 tumour-bearing mice; assay type: in vivo, mouse; settings: female, mouse, whole blood, oral, 15 mg/kg, 15mg/kg BID; 4 h; read-out: Mean total blood concentration

Compound	concentration at 4 h, nM
CCc1c(N2CCN(C(=O)c3ncccc3O)CC2)c(=O)n2nc(C3=CCOCC3)nc2n1CC(=O)Nc1ccc(C(F)(F)F)cc1C [compound 3]	130

---

test: HRO761 blood PK in SW48 tumour-bearing mice; type: in vivo, mouse; conditions: female, mouse, whole blood, oral, 40 mg/kg, Free HRO761 blood concentration, Mean; 1 h

Compound	concentration at 1 h
CCc1c(N2CCN(C(=O)c3ncnc(C)c3O)CC2)c(=O)n2nc(C3=CCOCC3)nc2n1CC(=O)Nc1ccc(C(F)(F)F)cc1Cl [HRO761]	1860 nM

---

assay: MDCK LE permeability; format: in vitro ADME, canine; settings: dog, Fig. 1b

Smiles Structure	Papp
CCc1c(N2CCN(C(=O)c3ncnc(C)c3O)CC2)c(=O)n2nc(C3=CCOCC3)nc2n1CC(=O)Nc1ccc(C(F)(F)F)cc1Cl	31 ×10⁻⁶ cm/s
Cc1c(N2CCN(C(=O)c3c(F)ccc(F)c3O)CC2)c(=O)n2nc(C3=CCOCC3)nc2n1CC(=O)Nc1ccc(C(F)(F)F)cc1	0.2 ×10⁻⁶ cm/s

---

experiment: Compound 3 blood PK in SW48 tumour-bearing mice; type: in vivo, mouse; settings: female, mouse, whole blood, oral, 150 mg/kg, 150mg/kg BID; 2 h; read-out: Mean total blood concentration

Molecule	concentration at 2 h
CCc1c(N2CCN(C(=O)c3ncccc3O)CC2)c(=O)n2nc(C3=CCOCC3)nc2n1CC(=O)Nc1ccc(C(F)(F)F)cc1C [compound 3]	8.33 µM

---

assay: HRO761 blood PK in SW48 tumour-bearing mice; type: in vivo, mouse; conditions: female, mouse, whole blood, oral, 120 mg/kg, Free HRO761 blood concentration, Mean; 24 h

Smiles Structure	Unit Text	concentration at 24 h
CCc1c(N2CCN(C(=O)c3ncnc(C)c3O)CC2)c(=O)n2nc(C3=CCOCC3)nc2n1CC(=O)Nc1ccc(C(F)(F)F)cc1Cl	nM	110

---

assay: HRO761 blood PK in SW48 tumour-bearing mice; type: in vivo, mouse; settings: female, mouse, whole blood, oral, 40 mg/kg, Free HRO761 blood concentration, Mean; 24 h

Smiles Structure	concentration at 24 h [nM]
CCc1c(N2CCN(C(=O)c3ncnc(C)c3O)CC2)c(=O)n2nc(C3=CCOCC3)nc2n1CC(=O)Nc1ccc(C(F)(F)F)cc1Cl	12.9

---

target: hERG (Homo sapiens); test: hERG binding (patch clamp)
Sequence (Q12809 whole entry): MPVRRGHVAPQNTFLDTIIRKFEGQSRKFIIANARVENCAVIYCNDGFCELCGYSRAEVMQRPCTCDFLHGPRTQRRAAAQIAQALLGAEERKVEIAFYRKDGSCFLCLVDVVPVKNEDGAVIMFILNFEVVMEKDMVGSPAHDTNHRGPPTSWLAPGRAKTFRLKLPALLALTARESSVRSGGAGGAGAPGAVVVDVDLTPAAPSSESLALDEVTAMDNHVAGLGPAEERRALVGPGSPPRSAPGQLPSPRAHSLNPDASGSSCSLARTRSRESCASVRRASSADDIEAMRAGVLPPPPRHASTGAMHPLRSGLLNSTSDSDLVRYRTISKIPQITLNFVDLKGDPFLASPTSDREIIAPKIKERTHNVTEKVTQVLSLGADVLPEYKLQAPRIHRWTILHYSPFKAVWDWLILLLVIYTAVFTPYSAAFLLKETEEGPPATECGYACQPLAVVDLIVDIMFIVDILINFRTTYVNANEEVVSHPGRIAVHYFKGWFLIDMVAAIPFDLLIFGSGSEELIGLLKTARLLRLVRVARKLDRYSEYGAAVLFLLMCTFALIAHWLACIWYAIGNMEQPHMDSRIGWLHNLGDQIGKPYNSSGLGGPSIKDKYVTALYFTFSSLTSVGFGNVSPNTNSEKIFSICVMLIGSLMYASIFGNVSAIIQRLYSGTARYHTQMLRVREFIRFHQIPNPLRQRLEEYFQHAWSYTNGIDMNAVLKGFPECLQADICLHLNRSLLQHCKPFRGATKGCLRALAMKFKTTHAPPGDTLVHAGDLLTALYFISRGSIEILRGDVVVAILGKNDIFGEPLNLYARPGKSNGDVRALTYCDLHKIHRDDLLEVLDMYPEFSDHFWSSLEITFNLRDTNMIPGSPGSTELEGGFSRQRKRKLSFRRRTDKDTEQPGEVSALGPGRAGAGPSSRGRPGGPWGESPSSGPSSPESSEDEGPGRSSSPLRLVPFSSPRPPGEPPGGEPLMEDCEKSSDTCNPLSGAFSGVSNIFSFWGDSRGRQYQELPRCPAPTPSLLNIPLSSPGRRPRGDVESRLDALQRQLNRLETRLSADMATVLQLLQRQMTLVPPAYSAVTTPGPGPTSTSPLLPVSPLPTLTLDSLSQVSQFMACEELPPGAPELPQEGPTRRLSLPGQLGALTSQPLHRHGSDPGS

Compound	IC50
CCc1c(N2CCN(C(=O)c3ncnc(C)c3O)CC2)c(=O)n2nc(C3=CCOCC3)nc2n1CC(=O)Nc1ccc(C(F)(F)F)cc1Cl [HRO761]	> 30 µM

---

test: HRO761 blood PK in SW48 tumour-bearing mice; type: in vivo, mouse; details: female, mouse, whole blood, oral, 40 mg/kg, Free HRO761 blood concentration, Mean; 4 h
Measurement Name: concentration at 4 h (nM)

Smiles Structure	Measurement Name	Unit Text	Observed Value
CCc1c(N2CCN(C(=O)c3ncnc(C)c3O)CC2)c(=O)n2nc(C3=CCOCC3)nc2n1CC(=O)Nc1ccc(C(F)(F)F)cc1Cl	concentration at 4 h	nM	130
